# PROTOCOL DETAILS: Compound solubility in water
# Format: physicochemical
Rule: t for solubility not less than 3 µg/mL, f for anything less.

Problem: Check the entry CCCCO[C@H]1CC[C@H](NC(=O)c2ccn3c(C)cc(-c4cccnc4)nc23)CC1 : does solubility equal or exceed 3 µg/mL?
Result: f

Problem: Hello, I need to know if Cc1cc(-c2cccnc2)nc2c(C(=O)N[C@H]3CC[C@H](OCC(C)(C)C)CC3)ccn12 has measured solubility not below 3 µg/mL. Thanks!
Result: f

Problem: Answer whether solubility of Cc1cc(C)n2ccc(C(=O)NC3(c4ccc(F)cc4)CCOCC3)c2n1 is greater than or equal to 3 µg/mL.
Result: f

Problem: Does the reported solubility for Cc1cc(C(F)F)n2ccc(C(=O)N[C@H]3CC[C@H](OCC(C)C)CC3)c2n1 fall at or above the 3 µg/mL mark?
Result: f

Problem: Given the entry Cc1cc(C(F)F)n2ccc(C(=O)N[C@@H](C)C3CC3)c2n1 , answer whether its solubility meets or surpasses 3 µg/mL.
Result: t

Problem: Textbook exercise: given the entry Cc1cc(C)n2ccc(C(=O)NC(C)C3CCCCC3)c2n1 (stereo not shown) , state whether its solubility is greater than or equal to 3 µg/mL.
Result: t

Problem: Determine whether this compound has solubility no lower than 3 µg/mL: COCc1cc(C)nc2c(C(=O)N[C@H]3CC[C@H](OCC(C)C)CC3)ccn12
Result: t

Problem: # bool: solubility of COCc1cc(C)nc2c(C(=O)NC(C)(C)C3CC3)ccn12 >= 3 µg/mL
Result: t

Problem: Would you say Cc1cc(C)n2ccc(C(=O)NC(C)(C)CC3CC3)c2n1 shows solubility at minimum 3 µg/mL?
Result: t

Problem: Textbook exercise: given the entry Cc1cc(C)n2ccc(C(=O)N[C@@H](C)c3ccc(Cl)cc3)c2n1 , state whether its solubility is greater than or equal to 3 µg/mL.
Result: f

Problem: Exam item: decide whether the reported solubility for C[C@H](NC(=O)c1ccn2cc(-c3ccc(F)cc3)cnc12)C1CC1 is at least 3 µg/mL.
Result: f

Problem: Can Cc1cc(C)n2ccc(C(=O)NC(C)(C)c3ccc4c(c3)OCCO4)c2n1 be said to have solubility at or above 3 µg/mL?
Result: f

Problem: Given the entry CCC(NC(=O)c1ccn2c(C)cc(C)nc12)c1cccnc1 (stereo not shown) , answer whether its solubility meets or surpasses 3 µg/mL.
Result: t

Problem: Please indicate if the recorded solubility for Cc1cc(C(F)F)nc2c(C(=O)N[C@H]3CC[C@H](OCC(C)C)CC3)ccn12 meets or exceeds 3 µg/mL.
Result: t

Problem: Can COc1cc(C)n2ccc(C(=O)NC(C)(C)C3CC3)c2n1 be said to have solubility at or above 3 µg/mL?
Result: t

Problem: Would you say COCc1cc(C)n2ccc(C(=O)N[C@H]3CC[C@H](OCC(C)C)CC3)c2n1 shows solubility at minimum 3 µg/mL?
Result: t

Problem: Is solubility for CCc1ccc(C(C)NC(=O)c2ccn3c(C)cc(C)nc23)cc1 (stereo not shown) at or above 3 µg/mL?
Result: f

Problem: Is reported solubility greater than or equal to 3 µg/mL here: Cc1cc(C)n2ccc(C(=O)NC(C)(C)c3ccccc3Cl)c2n1
Result: f

Problem: // inclusive: solubility at least 3 µg/mL? input: CCC(NC(=O)c1ccn2c(C)cc(C)nc12)c1ccc(F)cc1 (stereo not shown)
Result: f

Problem: Say whether Cc1cc(Cl)n2ccc(C(=O)NC(C)(C)C3CC3)c2n1 shows solubility of 3 µg/mL or more.
Result: t

Problem: Given COc1cccc([C@@H](C)NC(=O)c2ccn3c(C)cc(C)nc23)c1 , state whether its solubility is at least 3 µg/mL.
Result: t

Problem: Check the entry Cc1cc(C)n2ccc(C(=O)N[C@@H](C)c3cccc(Cl)c3)c2n1 : does solubility equal or exceed 3 µg/mL?
Result: f

Problem: Say whether COc1ccccc1[C@@H](C)NC(=O)c1ccn2c(C)cc(C)nc12 shows solubility of 3 µg/mL or more.
Result: f

Problem: Say whether Cc1cc(C)n2cc(C3CC3)c(C(=O)NC(C)(C)C3CC3)c2n1 shows solubility of 3 µg/mL or more.
Result: f

Problem: Threshold query (solubility >= 3 µg/mL) on Cc1c2c(nc3c(C(=O)NC(C)(C)C4CC4)ccn13)CCC2
Result: f

Problem: Check the entry Cc1cc(C(F)F)nc2c(C(=O)N[C@@H](C)C3CC3)ccn12 : does solubility equal or exceed 3 µg/mL?
Result: t

Problem: Check this compound for solubility at or above 3 µg/mL: Cc1cc(C)n2ccc(C(=O)NC(C)c3cccc4c3OCCCO4)c2n1 (stereo not shown)
Result: t

Problem: For this compound, is measured solubility 3 µg/mL or higher? Cc1cc(C)n2c(C)cc(C(=O)N[C@@H](C)C3CC3)c2n1
Result: t

Problem: Tell me whether solubility is at least 3 µg/mL here: CCOc1ccccc1C(C)NC(=O)c1ccn2c(C)cc(C)nc12 (stereo not shown)
Result: f

Problem: Item Cc1cc(C)n2ccc(C(=O)NC(C)c3ccc4c(c3)OCO4)c2n1 (stereo not shown) with solubility of 3 µg/mL or above?
Result: t

Problem: Does solubility meet or surpass 3 µg/mL for Cc1cc(C)n2ccc(C(=O)NC(C)C3(c4ccccc4)CCCC3)c2n1 (stereo not shown) ?
Result: f

Problem: Has Cc1cc(-c2cncnc2)nc2c(C(=O)NC(C)(C)C3CC3)ccn12 a recorded solubility greater than or equal to 3 µg/mL?
Result: t
